# target under test: His-AKT (Full Length) (Homo sapiens, UniProt P31749)
# Sequence (P31749 whole entry): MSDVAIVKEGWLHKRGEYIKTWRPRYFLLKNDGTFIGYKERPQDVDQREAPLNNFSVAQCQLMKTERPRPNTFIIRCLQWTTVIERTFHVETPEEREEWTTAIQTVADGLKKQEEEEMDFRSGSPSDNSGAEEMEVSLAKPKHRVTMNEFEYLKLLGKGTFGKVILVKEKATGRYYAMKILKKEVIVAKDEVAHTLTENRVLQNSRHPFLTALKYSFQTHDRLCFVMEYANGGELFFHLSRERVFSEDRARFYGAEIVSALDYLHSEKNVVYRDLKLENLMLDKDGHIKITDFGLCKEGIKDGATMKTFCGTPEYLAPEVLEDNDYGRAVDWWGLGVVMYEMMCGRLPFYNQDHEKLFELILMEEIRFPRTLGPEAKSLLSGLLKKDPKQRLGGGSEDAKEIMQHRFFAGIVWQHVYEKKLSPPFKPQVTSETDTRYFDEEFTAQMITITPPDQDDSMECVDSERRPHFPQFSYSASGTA
pIC50: −log10 of the molar value.
pIC50 reference

Observe how each entry below is paired with its result.
Cc1cccc(-c2cn(CCN3CCCC3)c(C3CCN(c4ncnc5c4NC(=O)CN5)CC3)n2)c1    7.00 to 7.59
COc1cc(-c2cn(CCN(C)C)c(C3CCN(c4ncnc5c4CCN5)CC3)n2)ccc1F    > 7.60
Fc1ccc(-c2cn(CCN3CCC3)c(C3CCN(c4ncnc5c4CCN5)CC3)n2)cc1Cl    > 7.60
O=C1CNc2ncnc(N3CCC(c4nc(-c5ccc(F)c(F)c5)cn4CCN4CCCC4)CC3)c2N1    > 7.60
CN(C)CCn1cc(-c2ccnc(C(F)(F)F)c2)nc1C1CCN(c2ncnc3c2CCCN3)CC1    > 7.60

Exercise: Check His-AKT (Full Length) (Homo sapiens, UniProt P31749) data and give pIC50 for `CN(C)CCn1cc(-c2ccc(F)c(C(F)(F)F)c2)nc1C1CCN(c2ncnc3c2OCCN3)CC1` .
Key: > 7.60

Exercise: Look up and report measured pIC50 (His-AKT (Full Length) (Homo sapiens, UniProt P31749)) for the following compound: `Cc1cc(-c2cn(CCN(C)C)c(C3CCN(c4ncnc5c4CCC5)CC3)n2)ccc1F`
Key: 6.30 to 7.00

Exercise: Give pIC50 for `O=C1CNc2ncnc(N3CCC(c4nc(-c5ccc(F)cc5)cn4CCN4CCCC4)CC3)c2N1` tested on His-AKT (Full Length) (Homo sapiens, UniProt P31749).
Key: 6.30 to 7.00

---

Quick list: IC50 per entry.
# target under test: P70S6K (T412E mutant, Millipore) (Homo sapiens, UniProt P23443, T412E)
# Construct: purchased Millipore
# Sequence (P23443 whole entry T412E): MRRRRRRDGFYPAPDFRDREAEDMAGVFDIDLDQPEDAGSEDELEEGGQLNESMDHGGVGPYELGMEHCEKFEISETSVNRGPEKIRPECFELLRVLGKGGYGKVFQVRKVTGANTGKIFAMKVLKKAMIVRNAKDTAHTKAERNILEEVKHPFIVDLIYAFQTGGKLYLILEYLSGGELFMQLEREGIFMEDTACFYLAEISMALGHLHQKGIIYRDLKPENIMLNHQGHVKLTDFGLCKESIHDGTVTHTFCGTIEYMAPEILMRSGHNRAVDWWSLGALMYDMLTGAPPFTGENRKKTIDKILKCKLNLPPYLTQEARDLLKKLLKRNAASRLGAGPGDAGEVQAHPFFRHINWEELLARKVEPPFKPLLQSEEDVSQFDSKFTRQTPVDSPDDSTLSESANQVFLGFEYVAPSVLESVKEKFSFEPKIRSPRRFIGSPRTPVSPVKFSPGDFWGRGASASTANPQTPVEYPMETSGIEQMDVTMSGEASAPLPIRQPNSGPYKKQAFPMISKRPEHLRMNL
# protocol details: P70S6K enzyme assay
# Type: biochemical
# applied conditions: enzyme inhibition; 24 μM ATP, 90 min at 25° C., Caliper mobility shift

Previously resolved entries follow.
Cc1ccc(-c2cn(CCN3CCCC3)c(C3CCN(c4ncnc5c4NC(=O)CN5)CC3)n2)cc1    > 1000 nM
Fc1ccc(-c2cn(CCN3CCC3)c(C3CCN(c4ncnc5c4CCCN5)CC3)n2)cc1C(F)(F)F    < 25 nM
COc1ccc(-c2cn(CCN(C)C)c(C3CCN(c4ncnc5c4NC(=O)CN5)CC3)n2)cc1    > 1000 nM
COc1cc(-c2cn(CCN(C)C)c(C3CCN(c4ncnc5c4CCCN5)CC3)n2)ccc1F    < 25 nM
CN(C)CCn1cc(-c2ccnc(C(F)(F)F)c2)nc1C1CCN(c2ncnc3c2CCCN3)CC1    < 25 nM
Fc1ccc(-c2cn(CCN3CCC3)c(C3CCN(c4ncnc5c4CCC5)CC3)n2)cc1Cl    < 25 nM
Fc1ccc(-c2cn(CCN3CCC3)c(C3CCN(c4ncnc5c4OCCN5)CC3)n2)cc1C(F)(F)F    < 25 nM

Pending molecule:
Exercise: Identify measured IC50 associated with `CN(C)CCn1cc(-c2cccnc2)nc1C1CCN(c2ncnc3c2NC(=O)CN3)CC1`
Key: > 1000 nM

---

# target under test: His-AKT (Full Length) (Homo sapiens, UniProt P31749)
# Construct: 0.1 ng/μl His-AKT (Full Length); His; purchased Invitrogen P2999
# protocol details: AKT enzyme assay
# Format: biochemical
# applied conditions: enzyme inhibition; 160 uM ATP, 90 min at 25° C., Caliper mobility shift
observed property: IC50

The examples below pair each entry with its known result.
Cc1cc(-c2cn(CCN(C)C)c(C3CCN(c4ncnc5c4CCCN5)CC3)n2)ccc1F [Compound A33]    < 0.025 µM
CN(C)CCn1cc(-c2ccc(F)cc2)nc1C1CCN(c2ncnc3c2NC(=O)CN3)CC1 [Compound A50]    0.501 to 1 µM
COc1cc(-c2cn(CCN(C)C)c(C3CCN(c4ncnc5c4CCCN5)CC3)n2)ccc1F [Compound A34]    < 0.025 µM
O=C1CNc2ncnc(N3CCC(c4nc(-c5ccccc5)cn4CCN4CCCC4)CC3)c2N1 [Compound A45]    0.501 to 1 µM

Here's the next entry for you.
Exercise: Supply recorded IC50 for Fc1ccc(-c2cn(CCN3CCC3)c(C3CCN(c4ncnc5c4OCCN5)CC3)n2)cc1Cl [Compound A13] here.
Key: < 0.025 µM
